test: Ex vivo biodistribution in PC-3 tumor-bearing mice; conditions: mouse, stomach, Uptake in stomach, 120 h post-injection
Numbered stars: 1 amine (or outer) side, 2 acyl side, 3 side chain; on linkers, the order of the positions; unused ones are H or OH. Square brackets hold non-standard residues; d marks the D form. Peptide text beside a SMILES is read from it. * marks the point of attachment. DOTA = O=C(O)CN1CCN(CC(=O)O)CCN(CC(=O)*)CCN(CC(=O)O)CC1; NMeH = CN[C@@H](Cc1c[nH]cn1)C(=O)O; X1 = O=C(CN1CCC(N[*:1])CC1)[*:2]; Tle = CC(C)(C)[C@H](N)C(=O)O; Thz = O=C(O)[C@@H]1CSCN1
propertyMeasured: tissue uptake at 120 h (%ID/g)
Just the number please, in %ID/g, no unit attached.

- CC(C)C[C@H](NC(=O)[C@H](Cc1cnc[nH]1)N(C)C(=O)CNC(=O)[C@@H](NC(=O)[C@H](C)NC(=O)[C@H](Cc1c[nH]c2ccccc12)NC(=O)[C@H](Cc1c[nH]cn1)NC(=O)[C@@H](Cc1ccccc1)NC(=O)CN1CCC(NC(=O)CN2CCN(CC(=O)O)CCN(CC(=O)O)CCN(CC(=O)O)CC2)CC1)C(C)(C)C)C(=O)N1CSC[C@H]1C(N)=O [[^177Lu]Lu-LW01142, metal not drawn] ({DOTA}-[X1][dF]HWA[Tle]G[NMeH]L[Thz]-NH2): 0.02

-- ask Consider the compound CC(C)C[C@@H](CN1CSC[C@H]1C(N)=O)NC(=O)[C@H](Cc1cnc[nH]1)NC(=O)CN(C)C(=O)[C@@H](NC(=O)[C@H](C)NC(=O)[C@H](Cc1c[nH]c2ccccc12)NC(=O)[C@H](CCC(N)=O)NC(=O)[C@@H](Cc1ccccc1)NC(=O)CN1CCC(NC(=O)CN2CCN(CC(=O)O)CCN(CC(=O)O)CCN(CC(=O)O)CC2)CC1)C(C)C [[^177Lu]Lu-TacsBOMB5, metal not drawn] and give its recorded tissue uptake at 120 h.
-- reply 0.02

-- ask Consider the compound CC(C)C[C@H](NC(=O)[C@H](Cc1cnc[nH]1)N(C)C(=O)CNC(=O)[C@@H](NC(=O)[C@H](C)NC(=O)[C@H](Cc1c[nH]c2ccccc12)NC(=O)[C@H](CCC(N)=O)NC(=O)[C@@H](Cc1ccccc1)NC(=O)CN1CCC(NC(=O)CN2CCN(CC(=O)O)CCN(CC(=O)O)CCN(CC(=O)O)CC2)CC1)C(C)(C)C)C(=O)N1CSC[C@H]1C(N)=O [[^177Lu]Lu-LW01110, metal not drawn] and give its recorded tissue uptake at 120 h.
-- reply 0.04
